- tested-on: RPS6KA1 KD1 (human) (UniProt Q15418)
- Sequence (Q15418 whole entry, looked up): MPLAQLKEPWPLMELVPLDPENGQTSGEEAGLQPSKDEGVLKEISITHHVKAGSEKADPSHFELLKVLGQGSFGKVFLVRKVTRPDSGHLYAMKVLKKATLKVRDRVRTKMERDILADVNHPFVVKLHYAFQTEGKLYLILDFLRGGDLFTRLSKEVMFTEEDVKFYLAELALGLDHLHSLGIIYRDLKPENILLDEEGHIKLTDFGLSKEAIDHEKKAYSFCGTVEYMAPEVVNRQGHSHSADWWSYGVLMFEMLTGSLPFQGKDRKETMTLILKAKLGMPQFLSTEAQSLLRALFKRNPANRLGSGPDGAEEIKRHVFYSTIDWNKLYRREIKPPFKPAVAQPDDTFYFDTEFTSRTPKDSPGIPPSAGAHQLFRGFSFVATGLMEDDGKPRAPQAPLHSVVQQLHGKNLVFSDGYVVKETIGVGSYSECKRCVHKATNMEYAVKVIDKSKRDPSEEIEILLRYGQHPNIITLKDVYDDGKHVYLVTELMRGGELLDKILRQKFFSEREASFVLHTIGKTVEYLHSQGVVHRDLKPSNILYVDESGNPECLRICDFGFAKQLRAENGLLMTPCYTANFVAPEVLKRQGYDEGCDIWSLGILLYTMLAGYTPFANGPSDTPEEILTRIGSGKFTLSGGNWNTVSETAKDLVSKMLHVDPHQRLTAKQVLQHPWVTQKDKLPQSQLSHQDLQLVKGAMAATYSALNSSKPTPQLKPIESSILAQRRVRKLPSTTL
- procedure-details: split-luciferase competition binding
- details: compound 10.0 µM
I would appreciate it if you labelled entries T when inhibition is 2% or higher, otherwise F.

Solved entries (count: 6):
Request: I'd appreciate it if you could say whether "O=C1Nc2ccc(I)cc2/C1=C/c1cc(Br)c(O)c(Br)c1" has inhibition at least equal to 2%.
Response: T

Request: I'd appreciate it if you could say whether "Brc1c(Br)c(Br)c2[nH]nnc2c1Br" has inhibition at least equal to 2%.
Response: F

Request: Reported inhibition reaches at least 2% for "COc1cc2ncn(-c3cc(OCc4ccccc4C(F)(F)F)c(C(N)=O)s3)c2cc1OC" ?
Response: T

Request: Given the entry "Fc1ccc(Cl)cc1-c1nc(Nc2ccncc2)c2nccnc2n1" , answer whether its inhibition meets or surpasses 2%.
Response: T

Request: API: above_or_equal(metric=inhibition, cutoff=2%) for item "O=C1c2ccccc2-c2n[nH]c3cccc1c23"
Response: F

Request: Does "N#CC(=C(\N)Sc1ccccc1N)/C(C#N)=C(/N)Sc1ccccc1N" have a reported inhibition of at least 2%?
Response: F

Next:
Request: Does the compound "O=c1cc(N2CCOCC2)oc2c1ccc1ccccc12" have recorded inhibition that is 2% or more?
Response: F

Request: Given "O=C(c1ccc(Nc2nccc(-c3cc4ccccc4s3)n2)cc1)N1CCC(N2CCCC2)CC1" , state whether its inhibition is at least 2%.
Response: T

Request: For this compound, is measured inhibition 2% or higher? "Cc1cc2nc3c(=O)[nH]c(=O)nc-3n(C)c2cc1C=O"
Response: F

Request: Has "CC(C)[C@H](CO)Nc1nc(Nc2cc(N)cc(Cl)c2)c2ncn(C(C)C)c2n1" a recorded inhibition greater than or equal to 2%?
Response: T

---

- tested-on: SGK3 (human)
- procedure-details: split-luciferase competition binding
- details: compound 10.0 µM
value-kind: inhibition (%)
Use % as the unit, but write only the number.

Would you please look over these solved cases?
Request: Tell me the measured inhibition of "Cc1[nH]c(/C=C2\C(=O)Nc3ccc(S(=O)(=O)Cc4c(Cl)cccc4Cl)cc32)c(C)c1C(=O)N1CCC[C@@H]1CN1CCCC1" , please.
Response: 0

Request: inhibition for "O=C1c2ccccc2-c2n[nH]c3cccc1c23" ?
Response: 0

Request: Need inhibition of "CCN(CC)CCCCN1c2ccccc2Oc2ccc(Cl)cc21" , thanks.
Response: 0

Request: inhibition for "C/C(O)=C(\C#N)C(=O)Nc1cc(Br)ccc1Br" ?
Response: 0

Request: Which inhibition reading was recorded for the molecule "NC(=O)c1ccc(-c2nc(-c3ccccn3)c(-c3ccc4c(c3)OCO4)[nH]2)cc1" ?
Response: 0

Request: Requested field: inhibition. Item: "O=C1NC(=O)c2c1c1c3ccccc3[nH]c1c1[nH]c3ccccc3c21"
Response: 81

Request: Using the record for "O=C1NC(=O)C(c2ccccc2[N+](=O)[O-])=C1Nc1ccc(O)c(Cl)c1" , report its inhibition.
Response: 0

Request: Quick one: inhibition for "COc1ccc(Cl)cc1NC(=O)Nc1cc(C)nc2ccccc12" ?
Response: 0

Request: Could you share which inhibition value was measured for "N#C/C(=C\c1ccc(O)c(O)c1)C(=O)NCc1ccccc1" ?
Response: 0

Request: Can you share its inhibition? I mean this molecule: CS(=O)c1ccc(-c2nc(-c3ccc(F)cc3)c(-c3ccncc3)[nH]2)cc1 (configuration not stated)
Response: 0

More entries:
Request: So what does the record say about inhibition for "COc1cc2ncnc(Nc3ccc(Cl)cc3F)c2cc1OC" ?
Response: 7

---

molecules and their reported inhibition
- tested-on: UniProtKB Q15418
- procedure-details: split-luciferase competition binding
- details: compound 10.0 µM
// return numeric value only (unit: %, not printed)

Use the examples below as a reference point.
Request: Look up inhibition for this molecule: "O=S(=O)(c1cccc2c(O)nccc12)N1CCCNCC1"
Response: 0

Request: Give the measured inhibition of "Cc1ccc(NC(=O)c2cccc(N(C)C)c2)cc1NC(=O)c1ccc(O)cc1" .
Response: 0

Query molecule follows.
Request: What inhibition value was documented for this molecule, "O=C1NC(=O)c2c1c1c3ccccc3[nH]c1c1[nH]c3ccccc3c21" ?
Response: 51

---

- Test system: PRKACA (mouse)
- procedure-details: split-luciferase competition binding
- details: compound 10.0 µM; accession and sequence are those of the human protein
Classify as follows. Reported inhibition greater than or equal to 2%: Met. Reported inhibition below: Not met.

Request: # bool: inhibition of "O=C1NC(=O)c2cc(Nc3ccc(F)cc3)c(Nc3ccc(F)cc3)cc21" >= 2%
Response: Met

Request: hey, is inhibition for this one >= 2%? O=C(NC(NC(=S)Nc1ccc(F)c([N+](=O)[O-])c1)C(Cl)(Cl)Cl)C(c1ccccc1)c1ccccc1 (stereo not given)
Response: Not met

Request: Determine whether this compound has inhibition no lower than 2%: "O=S(=O)(c1cccc2c(O)nccc12)N1CCCNCC1"
Response: Met

---

- tested-on: RPS6KA4 KD1 (human) (UniProt O75676)
- Sequence (O75676 whole entry, looked up): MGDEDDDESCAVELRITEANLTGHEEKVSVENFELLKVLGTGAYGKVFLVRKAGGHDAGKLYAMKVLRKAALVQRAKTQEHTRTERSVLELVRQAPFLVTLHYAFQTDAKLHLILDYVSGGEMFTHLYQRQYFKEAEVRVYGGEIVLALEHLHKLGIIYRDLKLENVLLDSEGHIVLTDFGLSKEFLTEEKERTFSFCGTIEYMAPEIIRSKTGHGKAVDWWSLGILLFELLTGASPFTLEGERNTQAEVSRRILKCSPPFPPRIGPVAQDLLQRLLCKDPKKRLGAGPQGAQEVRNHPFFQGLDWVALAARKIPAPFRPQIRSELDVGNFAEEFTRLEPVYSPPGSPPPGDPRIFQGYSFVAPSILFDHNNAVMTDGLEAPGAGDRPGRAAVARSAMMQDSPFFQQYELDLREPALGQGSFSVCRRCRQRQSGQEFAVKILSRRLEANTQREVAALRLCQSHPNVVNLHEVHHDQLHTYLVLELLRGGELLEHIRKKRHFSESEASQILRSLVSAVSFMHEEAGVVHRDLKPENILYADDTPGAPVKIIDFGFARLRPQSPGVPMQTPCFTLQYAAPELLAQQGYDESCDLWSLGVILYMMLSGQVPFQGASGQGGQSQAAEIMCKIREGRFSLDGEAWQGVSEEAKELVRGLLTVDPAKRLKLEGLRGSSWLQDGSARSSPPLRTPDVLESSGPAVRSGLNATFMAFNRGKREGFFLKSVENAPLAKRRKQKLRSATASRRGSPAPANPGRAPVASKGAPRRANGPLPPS
- procedure-details: split-luciferase competition binding
- details: compound 10.0 µM
inhibition for assorted molecules
Number in %, nothing else.

Examples with answers:
Request: Could you tell me which inhibition is on file for "O=S(=O)(c1cccc2c(O)nccc12)N1CCCNCC1" ?
Response: 0

Request: Please report the recorded inhibition for "Oc1ccc(-c2nc(-c3ccc(F)cc3)c(-c3ccncc3)[nH]2)cc1" .
Response: 0

Request: Field request: inhibition | item: "O=C(Nc1cc(C(F)(F)F)cc(C(F)(F)F)c1)c1cc(Cl)ccc1O"
Response: 0

Request: // query inhibition value for entry "NC(=O)Nc1sc(-c2ccc(F)cc2)cc1C(N)=O"
Response: 16

Request: Could you tell me which inhibition is on file for "CN(C)CCCn1cc(C2=C(c3c[nH]c4ccccc34)C(=O)NC2=O)c2ccccc21" ?
Response: 30

Request: Can you share its inhibition? I mean this molecule: "COc1cc2nccc(Oc3ccc(NC(=O)Nc4ccc(F)cc4F)c(F)c3)c2cc1OC"
Response: 23

Request: Tell me the measured inhibition of "CN1CCC(Nc2ncc3ncnc(Nc4ccc(F)c(Cl)c4)c3n2)CC1" , please.
Response: 0

Request: So what's the measured inhibition for this one? "COc1cc2ncnc(Nc3ccc(F)c(Cl)c3)c2cc1OCCCN1CCOCC1"
Response: 0

---
Request: Give the measured inhibition of "CC(C)(C)n1nc(-c2cccc3ccccc23)c2c(N)ncnc21" .
Response: 0

Request: What value of measured inhibition is listed for "CC(C)[C@H](CO)Nc1nc(Nc2cccc(Cl)c2)c2ncn(C(C)C)c2n1" ?
Response: 12

Request: I have this molecule here, "O=c1cc(N2CCOCC2)oc2c1ccc1ccccc12" , and I need its recorded inhibition.
Response: 0

---

Readings of inhibition for the listed compounds
- tested-on: SGK2 (human)
- procedure-details: split-luciferase competition binding
- details: compound 10.0 µM
Supply the numeric figure in %, leaving out any unit text.

Request: Field request: inhibition | item: "COc1cc2c(Nc3ccc(NC(=O)c4ccccc4)cc3)ncnc2cc1OCCCN1CCOCC1"
Response: 0

Request: Item "COc1ccc(Cl)cc1NC(=O)Nc1cc(C)nc2ccccc12" has what recorded inhibition?
Response: 0

More entries:
Request: Could you share which inhibition value was measured for "O=C1c2ccccc2-c2n[nH]c3cccc1c23" ?
Response: 2

Request: Can you look up the measured inhibition of "O=S(=O)(c1cccc2cnccc12)N1CCCNCC1" for me?
Response: 1

Request: Give its inhibition value. Item: "COc1cc2nccc(Oc3ccc(NC(=O)Nc4ccc(F)cc4F)c(F)c3)c2cc1OC"
Response: 17

Request: Query (compound): "Cc1ccccc1C(=O)c1ccc(Nc2ccc(Br)cc2N)cc1Cl" ; field requested: inhibition
Response: 0

Request: Any idea what inhibition was measured for "Fc1ccc(Cl)cc1-c1nc(Nc2ccncc2)c2nccnc2n1" ?
Response: 22

---

- tested-on: RPS6KA2 KD1 (human)
- procedure-details: split-luciferase competition binding
- details: compound 10.0 µM
Class MET: inhibition at least 4%. Class NOT MET: inhibition below 4%.

Examples from the recorded data:
Request: inhibition >= 4% for "CN(C)CCCn1cc(C2=C(c3c[nH]c4ccccc34)C(=O)NC2=O)c2ccccc21" ?
Response: MET

Request: Textbook exercise: given the entry "Cn1cc(C2=C(c3ccc(Cl)cc3Cl)C(=O)NC2=O)c2ccccc21" , state whether its inhibition is greater than or equal to 4%.
Response: NOT MET

Request: hey, is inhibition for this one >= 4%? "O=c1cc(N2CCOCC2)oc2c(-c3ccccc3)cccc12"
Response: NOT MET

Request: Is reported inhibition greater than or equal to 4% here: "CC(C)N(CCC(=O)c1ccc2ccccc2c1)Cc1ccccc1"
Response: NOT MET

Request: Determine whether this compound has inhibition no lower than 4%: "Cc1cc(I)ccc1Nc1c(C(=O)NOCC2CC2)cc(F)c(F)c1F"
Response: NOT MET

Next:
Request: Does "Fc1ccc(Cl)cc1-c1nc(Nc2ccncc2)c2nccnc2n1" have a reported inhibition of at least 4%?
Response: MET

Request: Can "O=C1NC(=O)c2c1c1c3ccccc3n3c1c1c2c2ccccc2n1C1CCC3O1" be said to have inhibition at or above 4%?
Response: MET

Request: Please indicate if the recorded inhibition for "CN1CC[C@H](c2c(O)cc(O)c3c(=O)cc(-c4ccccc4Cl)oc23)[C@H](O)C1" meets or exceeds 4%.
Response: NOT MET
